# Tested target: X-box-binding protein 1 (Homo sapiens)
# Protocol: Transactivation of XBP1 (unknown origin) transfected in rat IEC-6 cells at 10 uM after 48 hrs by dual luciferase reporter gene assay
# Format: cell-based
Calls of active or inactive are those of the source. The calls are words filed in the database; no cut-off is given here.
API: response.call in active, inactive

Worked examples, 8 molecules total:
Molecule: C1=CC2CC=CCN2CC1 (configuration not stated)
Class label: active
--
Molecule: Fc1ccccc1CC1=C2c3cc4c(cc3CCN2Cc2c1ccc1c2OCO1)OCO4
Class label: active
--
Molecule: COc1ccc(CC2=C3c4cc5c(cc4CCN3Cc3c2ccc2c3OCO2)OCO5)cc1
Class label: active
--
Molecule: C=C(C(=O)C1CC1)c1c2c3c(ccc2c(C)c2[n+]1CCc1cc4c(cc1-2)OCO4)OCO3
Class label: inactive
--
Molecule: Fc1ccccc1Cc1c2[n+](cc3c4c(ccc13)OCO4)CCc1cc3c(cc1-2)OCO3
Class label: active
--
Molecule: N#CC1c2c(ccc3c2OCO3)C=C2c3cc4c(cc3CCN21)OCO4 (racemic)
Class label: active
--
Molecule: Cc1c2[n+](cc3c4c(ccc13)OCO4)CCc1cc3c(cc1-2)OCO3
Class label: active
--
Molecule: C=C(C(=O)C(C)C)c1c2c3c(ccc2c(C)c2[n+]1CCc1cc4c(cc1-2)OCO4)OCO3
Class label: inactive

# lookup: test call for N#Cc1ccc(CC2=C3c4cc5c(cc4CCN3Cc3c2ccc2c3OCO2)OCO5)cc1
active

And the next one, C=C(C(=O)CCCC)c1c2c3c(ccc2c(C)c2[n+]1CCc1cc4c(cc1-2)OCO4)OCO3 ?
inactive

And the next one, C=C(C(=O)C(C)(C)C)c1c2c3c(ccc2c(C)c2[n+]1CCc1cc4c(cc1-2)OCO4)OCO3 ?
inactive

And the next one, CC(=O)CC1c2c(ccc3c2OCO3)C=C2c3cc4c(cc3CCN21)OCO4 (racemic) ?
active
